Data provenance is patent US5990208A.

ASSAY_OVERVIEW: Weight loss of additive by thermogravimetric analysis (TGA)
Format: physicochemical
TEST_CONTEXT: 5° C./min, nitrogen, 10% weight loss
RECORDED_ENDPOINT: Temperature at which stated weight loss of additive occurs, 10% (°C)

{"columns": ["MOLECULE", "OBSERVED_VALUE"],
 "data": [
  ["CC1(C)CN(CCN(c2nc(N(CCN3CC(C)(C)NC(C)(C)C3=O)C3CCCCC3)nc(N(CCN3CC(C)(C)NC(C)(C)C3=O)C3CCCCC3)n2)C2CCCCC2)C(=O)C(C)(C)N1 [GOODRITE ® 3150]", 362],
  ["CN1C(C)(C)CN(CCN(c2nc(N(CCN3CC(C)(C)N(C)C(C)(C)C3=O)C3CCCCC3)nc(N(CCN3CC(C)(C)N(C)C(C)(C)C3=O)C3CCCCC3)n2)C2CCCCC2)C(=O)C1(C)C [GOODRITE ® 3159]", 372],
  ["CCCCCCCCON1C(C)(C)CC(OC(=O)CCCCCCCCC(=O)OC2CC(C)(C)N(OCCCCCCCC)C(C)(C)C2)CC1(C)C [TINUVIN ® 123]", 236],
  ["CC1(C)CC(OC(=O)CCCCCCCCC(=O)OC2CC(C)(C)NC(C)(C)C2)CC(C)(C)N1 [TINUVIN ® 770]", 260]
]}
